# assay.protocol: Partition coefficient (logP)
# Type: physicochemical
# measurement.conditions: octanol/water; read-out: logP
Overview of reported logP across a group of molecules:

Below are worked cases with known answers.
CCN1C(=O)NC(=O)C1(C)c1ccccc1 (stereo not given) | 2.02
NC(=O)N1c2ccccc2C=Cc2ccccc21 [CARBAMAZEPINE] | 2.13
O=C1NC(=O)C2(CCCCCc3ccccc32)N1 (stereo not given) | 2.46
O=C1NC(=O)C2(CCc3ccccc32)N1 (stereo not given) | 0.96
CCCCC1(c2ccccc2C)NC(=O)NC1=O (stereo in doubt; 14a) | 2.96

Return reported logP; argument: O=C1NC(=O)C(c2ccccc2)(C2CCCCC2)N1 (stereo not given)
2.96

Return reported logP; argument: CCCCC1(c2ccc(C)cc2)NC(=O)NC1=O (stereo not given)
2.96

Return reported logP; argument: CCCCCCCC(O)(C(N)=O)c1ccccc1 (stereo not given)
3.7

Return reported logP; argument: CCCCCCC1(c2ccccc2)NC(=O)NC1=O (stereo not given)
3.4

Return reported logP; argument: CCCCCCCCCC1(c2ccccc2)NC(=O)NC1=O (stereo not given)
4.96

---

Overview of reported logP across a group of compounds:
# assay.protocol: Partition coefficient (logP)
# Type: physicochemical
# measurement.conditions: octanol/water; read-out: logP
I'd appreciate a reply containing only the number, no unit.

O=C1NC(=O)C2(CCCc3ccccc32)N1 (stereo not given) | 1.46
CC12C(=O)NC(=O)N1CCc1ccccc12 (stereo not given) | 1.52
CCCCCCCC1(c2ccccc2)NC(=O)NC1=O (stereo not given) | 3.96
O=C1NC(=O)C2(CCCCc3ccccc32)N1 (stereo not given) | 1.96

Return reported logP; argument: CCCCC1(c2cccc(C)c2)NC(=O)NC1=O (stereo not given)
2.96
